assay: Cytotoxicity against C57BL/6 mouse BMM cells assessed as reduction in cell viability measured after 48 hrs in presence of M-CSF by CCK8 assay; type: cell-based, BMMC; details: BMM cells (bone marrow-derived)
observation_type: CC50 at 48 h

Q) Please look up its CC50 at 48 h: C=C1CC[C@@H]2[C@](C)(CO)[C@H](O)CC[C@@]2(C)[C@@H]1CC=O
A) > 30 µM

Q) How about this compound: C=C1CC[C@@H]2[C@](C)(CO)[C@H](O)CC[C@@]2(C)[C@@H]1C/C=C1\C=COC1=O
A) 20.6 µM

Q) How about this compound: C=C1CC[C@@H]2[C@](C)(CO)[C@H](O)CC[C@@]2(C)[C@@H]1/C=C/C1=CCOC1=O
A) > 30 µM

Q) How about this compound: C=C1CC[C@@H]2[C@](C)(CO)[C@H](O)CC[C@@]2(C)[C@@H]1CCC1C(=O)OC[C@H]1O (stereo partly specified)
A) > 30 µM

Q) How about this compound: C=C1CC[C@@H]2[C@](C)(CO)[C@H](O)CC[C@@]2(C)[C@@H]1C/C=C1/C(=O)OC[C@H]1O [ANDROGRAPHOLIDE]
A) 10.3 µM

Q) How about this compound: C=C1CC[C@@H]2[C@](C)(CO)[C@H](O)CC[C@@]2(C)[C@@H]1C/C=C(/C(=O)O)[C@H](O)CO
A) > 30 µM
